assay.comment: Octanol-water partition coefficient, log P of the compound
Assay type: physicochemical

compound.string | logP
O=[N+]([O-])/N=C1\N(Cc2ccc(Cl)nc2)CCN1Cc1ccc2c(c1)OCCOCCOCCOCCOCCO2 | 0.28
O=[N+]([O-])/N=C1\N(Cc2ccc(Cl)nc2)CCN1Cc1ccc2c(c1)OCCOCCOCCOCCO2 | 0.15

These measurements were taken from ChEMBL document CHEMBL1136901.
